Data credit: paper PMC4604475

experiment: Hydrolysis kinetics in aqueous PBS 0.1 M, pH 6.8, 37 °C (intestinal conditions); type: physicochemical; conditions: value ± standard error of fit
parameter-measured: 10^2 * kII, pseudo first-order rate constant, disubstituted to monosubstituted

compound: CCC(C)C(NC(=O)Oc1ccc(/C=C/c2cc(OC(=O)NC(C(=O)O)C(C)CC)cc(OC(=O)NC(C(=O)O)C(C)CC)c2)cc1)C(=O)O (stereo not shown) [Derivative 3]
meas-value: 0.4 ± 0.4 h^−1

compound: CC(O)C(NC(=O)Oc1ccc(/C=C/c2cc(OC(=O)NC(C(=O)O)C(C)O)cc(OC(=O)NC(C(=O)O)C(C)O)c2)cc1)C(=O)O (stereo not shown) [Derivative 4]
meas-value: 1.4 ± 0.1 h^−1

compound: CC(C)CC(NC(=O)Oc1ccc(/C=C/c2cc(OC(=O)NC(CC(C)C)C(=O)O)cc(OC(=O)NC(CC(C)C)C(=O)O)c2)cc1)C(=O)O (stereo not shown) [Derivative 2]
meas-value: 0.9 ± 0.2 h^−1

Then this compound:
Ask: # input compound: O=C(NC(Cc1ccccc1)C(=O)O)Oc1ccc(/C=C/c2cc(OC(=O)NC(Cc3ccccc3)C(=O)O)cc(OC(=O)NC(Cc3ccccc3)C(=O)O)c2)cc1 (stereo not shown) [Derivative 5] ; wanted: its 10^2 * kII, pseudo first-order rate constant, disubstituted to monosubstituted
Result: 1.36 ± 0.04 h^−1

* * *

test: Hydrolysis kinetics in aqueous PBS 0.1 M, pH 6.8, 37 °C (intestinal conditions); assay type: physicochemical; conditions: 0.1 M PBS buffer, 5 μM compound
Examples of compounds with documented half-life at 5 μM follow.
Output spec: scalar in h, unitless text.

compound: O=C(NC(Cc1ccccc1)C(=O)O)Oc1ccc(/C=C/c2cc(OC(=O)NC(Cc3ccccc3)C(=O)O)cc(OC(=O)NC(Cc3ccccc3)C(=O)O)c2)cc1 (stereo not shown)
parameter-measured: half-life at 5 μM
meas-value: 17

// next item, half-life at 5 μM requested
Ask: May I ask what half-life at 5 μM has been recorded for CC(O)C(NC(=O)Oc1ccc(/C=C/c2cc(OC(=O)NC(C(=O)O)C(C)O)cc(OC(=O)NC(C(=O)O)C(C)O)c2)cc1)C(=O)O (stereo not shown) ?
Result: 15

* * *

assay: Hydrolysis kinetics in aqueous PBS 0.1 M, pH 6.8, 37 °C (intestinal conditions); format: physicochemical; details: value ± standard error of fit
Recorded 10^2 * kIII, pseudo first-order rate constant, trisubstituted to disubstituted, one value per entry.

molecule: CC(C)CC(NC(=O)Oc1ccc(/C=C/c2cc(OC(=O)NC(CC(C)C)C(=O)O)cc(OC(=O)NC(CC(C)C)C(=O)O)c2)cc1)C(=O)O (stereo not shown) [Derivative 2]
meas-value: 1.98 ± 0.03 h^−1
--
molecule: O=C(NC(Cc1ccccc1)C(=O)O)Oc1ccc(/C=C/c2cc(OC(=O)NC(Cc3ccccc3)C(=O)O)cc(OC(=O)NC(Cc3ccccc3)C(=O)O)c2)cc1 (stereo not shown) [Derivative 5]
meas-value: 4.25 ± 0.02 h^−1
--
molecule: CCC(C)C(NC(=O)Oc1ccc(/C=C/c2cc(OC(=O)NC(C(=O)O)C(C)CC)cc(OC(=O)NC(C(=O)O)C(C)CC)c2)cc1)C(=O)O (stereo not shown) [Derivative 3]
meas-value: 2.21 ± 0.02 h^−1

Ask: Please look up its 10^2 * kIII, pseudo first-order rate constant, trisubstituted to disubstituted: CC(O)C(NC(=O)Oc1ccc(/C=C/c2cc(OC(=O)NC(C(=O)O)C(C)O)cc(OC(=O)NC(C(=O)O)C(C)O)c2)cc1)C(=O)O (stereo not shown) [Derivative 4]
Result: 5.30 ± 0.08 h^−1
